biological target: human adenosine A2AR (Homo sapiens); construct: expressed in transfected cells; host or cells: CHO cells; assay: Radioligand binding at human adenosine A2A receptor vs. [3H]MSX-2; conditions: human recombinant receptor in CHO cells; read-out: A2AR vs. [³H]MSX-2 Ki ± SEM
Sequence (P29274 whole entry): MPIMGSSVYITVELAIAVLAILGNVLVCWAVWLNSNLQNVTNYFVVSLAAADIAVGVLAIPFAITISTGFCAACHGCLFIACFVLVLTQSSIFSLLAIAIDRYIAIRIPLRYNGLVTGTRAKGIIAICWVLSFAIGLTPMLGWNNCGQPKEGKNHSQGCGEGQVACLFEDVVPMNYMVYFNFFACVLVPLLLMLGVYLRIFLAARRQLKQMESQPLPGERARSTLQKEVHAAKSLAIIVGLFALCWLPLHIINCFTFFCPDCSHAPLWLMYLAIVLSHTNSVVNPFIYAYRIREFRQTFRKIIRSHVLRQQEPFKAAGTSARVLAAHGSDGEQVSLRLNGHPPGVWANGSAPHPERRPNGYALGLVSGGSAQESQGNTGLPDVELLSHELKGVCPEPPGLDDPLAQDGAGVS
MEASURE_NAME: Ki (nM)

Example results:
Ask: Return Ki measured with human adenosine A2AR (Homo sapiens) given this compound: C#CCn1c(=O)c2c(nc(NCc3ccc(OC)c(OC)c3)n2C)n(C)c1=O
Reply: 108

Ask: Ok, now CCCCn1c(=O)c2c(nc(NCc3ccccc3Cl)n2C)n(C)c1=O
Reply: 318

Ask: Ok, now C#CCn1c(=O)c2c(nc(NCc3cccc(OC)c3)n2C)n(C)c1=O
Reply: 225

a = C#CCn1c(=O)c2c(nc(NCc3cccc(Br)c3)n2C)n(C)c1=O
b = CCCn1c(=O)c2c(nc(NCc3cccc(Cl)c3)n2C)n(C)c1=O
Ask: Please choose the item with the lower Ki value from this pair: a and b Mark your answer with the label of the selected entry.
Reply: a
(a: 77 nM, b: 588 nM)

Measured values drawn from paper PMC10531311 for this set.
